Record form. Attribute: IC50. Fill in for each entry.
biological target: HSP90α protein (Homo sapiens, UniProt P07900); construct: purchased BPS Bioscience #50298; test: HSP90α-binding FP (BODIPY) assay; conditions: FP competition with BODIPY-labeled RNK04010

(Q) Entry `CCOc1cc(N2CCC(C(=O)N3CCN(Cc4ccc(-n5c(O)nnc5-c5cc(C(C)C)c(O)cc5O)cc4C(F)(F)F)CC3)CC2)ccc1Nc1ncc2c(n1)N(C)c1ccccc1C(=O)N2C` : reported IC50 = ?
(A) 100 to 1000 nM

(Q) Entry `CCOc1cc(N2CCC(C(=O)NCc3ccc(-n4c(O)nnc4-c4cc(C(C)C)c(O)cc4O)cc3F)CC2)ccc1Nc1ncc2c(n1)N(C)c1ccccc1C(=O)N2C` : reported IC50 = ?
(A) 100 to 1000 nM

(Q) Entry `CCOc1cc(N2CCC(C(=O)N3CCC(CN4CCN(C(=O)O[C@H]5CC[C@H](Nc6cc(-n7nc(C(F)(F)F)c8c7CC(C)(C)CC8=O)ccc6C(N)=O)CC5)CC4)CC3)CC2)ccc1Nc1ncc2c(n1)N(C)c1ccccc1C(=O)N2C` : reported IC50 = ?
(A) > 1000 nM

(Q) Entry `CCOc1cc(N2CCC(C(=O)N3CCC(CN4CCN(Cc5ccc(-n6c(C(=O)N[C@@H](C)C(F)(F)F)nnc6-c6cc(CC)c(O)cc6O)cc5)CC4)CC3)CC2)ccc1Nc1ncc2c(n1)N(S(C)(=O)=O)c1ccccc1C(=O)N2C` : reported IC50 = ?
(A) 100 to 1000 nM

(Q) Entry `CCOc1cc(N2CCC(C(=O)N3CCN(C(=O)O[C@H]4CC[C@H](Nc5cc(-n6nc(C(F)(F)F)c7c6CC(C)(C)CC7=O)ccc5C(N)=O)CC4)CC3)CC2)ccc1Nc1ncc2c(n1)N(S(C)(=O)=O)c1ccccc1C(=O)N2C` : reported IC50 = ?
(A) > 1000 nM

(Q) Entry `CCOc1cc(N2CCC(C(=O)N3CCC(CN4CCN(Cc5ccc(-n6c(O)nnc6-c6ccc(O)cc6O)cc5)CC4)CC3)CC2)ccc1Nc1ncc2c(n1)N(C)c1ccccc1C(=O)N2C` : reported IC50 = ?
(A) 100 to 1000 nM

(Q) Entry `CCOc1cc(N2CCC(C(=O)NCCCNC(=O)O[C@H]3CC[C@H](Nc4cc(-n5nc(C(F)(F)F)c6c5CC(C)(C)CC6=O)ccc4C(N)=O)CC3)CC2)ccc1Nc1ncc2c(n1)N(S(C)(=O)=O)c1ccccc1C(=O)N2C` : reported IC50 = ?
(A) > 1000 nM

(Q) Entry `CCOc1cc(N2CCC(C(=O)NCCOCCOCCNC(=O)O[C@H]3CC[C@H](Nc4cc(-n5nc(C(F)(F)F)c6c5CC(C)(C)CC6=O)ccc4C(N)=O)CC3)CC2)ccc1Nc1ncc2c(n1)N(C)c1ccccc1C(=O)N2C` : reported IC50 = ?
(A) > 1000 nM

(Q) Entry `CCOc1cc(N2CCC(C(=O)N3CCC(N4CCN(Cc5ccc(-n6c(O)nnc6-c6cc(C(C)C)c(O)cc6O)cc5)CC4)CC3)CC2)ccc1Nc1ncc2c(n1)N(C)c1ccccc1C(=O)N2C.Cl` : reported IC50 = ?
(A) < 100 nM

(Q) Entry `CCOc1cc(N2CCC(C(=O)N3CCN(CCOc4ccc(Nc5cc(-n6nc(C(F)(F)F)c7c6CC(C)(C)CC7=O)ccc5C(N)=O)cc4)CC3)CC2)ccc1Nc1ncc2c(n1)N(S(C)(=O)=O)c1ccccc1C(=O)N2C` : reported IC50 = ?
(A) 100 to 1000 nM

(Q) Entry `CCOc1cc(N2CCC(C(=O)N3CCC(CN4CCN(Cc5ccc(-n6c(O)nnc6-c6cc(C(C)C)c(O)cc6O)cc5)CC4)CC3)CC2)ccc1N(CC)c1ncc2c(n1)N(C)c1ccccc1C(=O)N2C` : reported IC50 = ?
(A) < 100 nM

(Q) Entry CCOc1cc(N2CCC(C(=O)N3CCC(CN4CCN(Cc5ccc(-n6c(C(=O)NC(C)C(F)(F)F)nnc6-c6cc(CC)c(O)cc6O)cc5)CC4)CC3)CC2)ccc1N(CC)c1ncc2c(n1)N(S(C)(=O)=O)c1ccccc1C(=O)N2C (centres unmarked) : reported IC50 = ?
(A) 100 to 1000 nM

(Q) Entry `CCOc1cc(N2CCC(C(=O)NCCOCCOc3ccc(Nc4ccc(-n5nc(C(F)(F)F)c6c5CC(C)(C)CC6=O)cc4C(N)=O)cc3)CC2)ccc1Nc1ncc2c(n1)N(S(C)(=O)=O)c1ccccc1C(=O)N2C` : reported IC50 = ?
(A) > 1000 nM

(Q) Entry `CCOc1cc(N2CCC(C(=O)N3CCC(CN4CCN(CCCOc5ccc(Nc6ccc(-n7nc(C(F)(F)F)c8c7CC(C)(C)CC8=O)cc6C(N)=O)cc5)CC4)CC3)CC2)ccc1Nc1ncc2c(n1)N(C)c1ccccc1C(=O)N2C` : reported IC50 = ?
(A) > 1000 nM

(Q) Entry CCOc1cc(N2CCC(C(=O)N3CCC(CN4CCN(Cc5ccc(-n6c(C(=O)NC(C)C(F)(F)F)nnc6-c6cc(CC)c(O)cc6O)cc5)CC4)CC3)CC2)ccc1Nc1ncc2c(n1)N(S(C)(=O)=O)c1ccccc1C(=O)N2C.Cl (centres unmarked) : reported IC50 = ?
(A) 100 to 1000 nM

(Q) Entry `CCOc1cc(N2CCC(C(=O)N[C@H](C)c3ccc(CN4CCC(Cc5ccc(-n6c(O)nnc6-c6cc(C(C)C)c(O)cc6O)cc5)CC4)cc3)CC2)ccc1Nc1ncc2c(n1)N(S(C)(=O)=O)c1ccccc1C(=O)N2C` : reported IC50 = ?
(A) 100 to 1000 nM

(Q) Entry `CCOc1cc(N2CCC(C(=O)N3CCC(CN4CCN(Cc5ccc(-n6c(O)nnc6-c6cc(CC)c(O)cc6O)cc5F)CC4)CC3)CC2)ccc1Nc1ncc2c(n1)N(C)c1ccccc1C(=O)N2C` : reported IC50 = ?
(A) 100 to 1000 nM

###

biological target: HSP90α protein (Homo sapiens, UniProt P07900); construct: purchased BPS Bioscience #50298; test: HSP90α-binding FP (BODIPY) assay; details: FP competition with BODIPY-labeled RNK04010
pIC50: −log10 of the molar value.
readout: pIC50

(Q) Entry CCOc1cc(N2CCC(C(=O)N3CCN(Cc4ccc(-n5c(O)nnc5-c5cc(C(C)C)c(O)cc5O)cc4)CC3)CC2)ccc1Nc1ncc2c(n1)N(C)c1ccccc1C(=O)N2C [Compound 024] : reported pIC50 = ?
(A) 6.00 to 7.00

(Q) Entry CCOc1cc(N2CCC(C(=O)N3CCC(CN4CCN(Cc5ccc(-n6c(C(N)=O)nnc6-c6cc(CC)c(O)cc6O)cc5)CC4)CC3)CC2)ccc1Nc1ncc2c(n1)N(C)c1ccccc1C(=O)N2C [Compound 034] : reported pIC50 = ?
(A) 6.00 to 7.00

(Q) Entry CCOc1cc(N2CCC(C(=O)N3CCC(N4CCN(Cc5ccc(-n6c(O)nnc6-c6cc(C(C)C)c(O)cc6O)cc5C(F)(F)F)CC4)CC3)CC2)ccc1Nc1ncc2c(n1)N(C)c1ccccc1C(=O)N2C [Compound 038] : reported pIC50 = ?
(A) 6.00 to 7.00

(Q) Entry CCOc1cc(N2CCC(C(=O)NCc3ccc(-n4c(O)nnc4-c4cc(C)c(O)cc4O)cc3)CC2)ccc1Nc1ncc2c(n1)N(S(C)(=O)=O)c1ccccc1C(=O)N2C [Compound 073] : reported pIC50 = ?
(A) < 6.00

(Q) Entry CCCc1cc(-c2nnc(O)n2-c2ccc(CN3CCN(CC4CCN(C(=O)C5CCN(c6ccc(Nc7ncc8c(n7)N(C)c7ccccc7C(=O)N8C)c(OCC)c6)CC5)CC4)CC3)cc2)c(O)cc1O [Compound 020] : reported pIC50 = ?
(A) 6.00 to 7.00

###

Record form. Attribute: IC50. Fill in for each entry.
target: HSP90α protein (Homo sapiens); construct: purchased BPS Bioscience #50298; assay: HSP90α-binding FP (BODIPY) assay; conditions: FP competition with BODIPY-labeled RNK04010

(Q) Entry CCOc1cc(N2CCC(C(=O)N3CCC(CN4CCN(Cc5ccc(-n6c(C(=O)NC7(C)CC7)nnc6-c6cc(CC)c(O)cc6O)cc5)CC4)CC3)CC2)ccc1Nc1ncc2c(n1)N(S(C)(=O)=O)c1ccccc1C(=O)N2C [Compound 083] : reported IC50 = ?
(A) < 100 nM

(Q) Entry CCOc1cc(N2CCC(C(=O)N3CCC(CN4CCN(CCCOc5ccc(Nc6ccc(-n7nc(C(F)(F)F)c8c7CC(C)(C)CC8=O)cc6C(N)=O)cc5)CC4)CC3)CC2)ccc1Nc1ncc2c(n1)N(S(C)(=O)=O)c1ccccc1C(=O)N2C [Compound 068] : reported IC50 = ?
(A) > 1000 nM

(Q) Entry CCOc1cc(N2CCC(C(=O)N3CCC(CN4CCN(Cc5ccc(-n6c(C(=O)NCC(F)(F)F)nnc6-c6cc(CC)c(O)cc6O)cc5)CC4)CC3)CC2)ccc1Nc1ncc2c(n1)N(C)c1ccccc1C(=O)N2C [Compound 022] : reported IC50 = ?
(A) 100 to 1000 nM

(Q) Entry CCOc1cc(N2CCC(C(=O)N3CCC(N4CCN(Cc5ccc(-n6c(O)nnc6-c6cc(C(C)C)c(O)cc6O)cc5)CC4)CC3)CC2)ccc1Nc1ncc2c(n1)N(S(C)(=O)=O)c1ccccc1C(=O)N2C [Compound 064] : reported IC50 = ?
(A) < 100 nM

(Q) Entry CCOc1cc(N2CCC(C(=O)NCc3ccc(-n4c(O)nnc4-c4cc(CC)c(O)cc4O)cc3)CC2)ccc1Nc1ncc2c(n1)N(C)c1ccccc1C(=O)N2C [Compound 028] : reported IC50 = ?
(A) 100 to 1000 nM

(Q) Entry CCOc1cc(N2CCC(C(=O)N3CCC(CN4CCN(Cc5ccc(-n6c(O)nnc6-c6cc(C(C)C)c(O)cc6O)cc5)CC4)CC3)CC2)ccc1Nc1ncc2c(n1)N(C)c1ccccc1C(=O)N2C.Cl [Compound 032] : reported IC50 = ?
(A) < 100 nM

(Q) Entry CCOc1cc(N2CCC(C(=O)N3CCC(Cc4ccc(CN(C)Cc5ccc(-n6c(C(=O)NCC(F)(F)F)nnc6-c6cc(CC)c(O)cc6O)cc5)cc4)CC3)CC2)ccc1Nc1ncc2c(n1)N(S(C)(=O)=O)c1ccccc1C(=O)N2C [Compound 097] : reported IC50 = ?
(A) 100 to 1000 nM

(Q) Entry CCOc1cc(N2CCC(C(=O)NCCOCc3ccc(-n4c(O)nnc4-c4cc(C(C)C)c(O)cc4O)cc3)CC2)ccc1Nc1ncc2c(n1)N(C)c1ccccc1C(=O)N2C [Compound 053] : reported IC50 = ?
(A) 100 to 1000 nM

(Q) Entry CCOc1cc(N2CCC(C(=O)N3CCC(CN4CCN(Cc5ccc(-n6c(O)nnc6-c6cc(C(C)C)c(O)cc6OC)cc5)CC4)CC3)CC2)ccc1Nc1ncc2c(n1)N(C)c1ccccc1C(=O)N2C [Compound 052] : reported IC50 = ?
(A) > 1000 nM
